Experiment: PAMPA with synthetic phospholipid membrane, lauryl chain (C12)
Assay type: in vitro ADME
Conditions: PAMPA, C12, donor pH 4.6, acceptor pH 7.4, 16 h; read-out: P e
experimentalReadout: Papp at 16 h (×10⁻⁶ cm/s)

CC(C)Cc1ccc(C(C)C(=O)O)cc1 (stereo not drawn); 22.5
CCn1cc(C(=O)O)c(=O)c2cc(F)c(N3CCNCC3)cc21; 1.8
O=C(N[C@H](CO)[C@H](O)c1ccc([N+](=O)[O-])cc1)C(Cl)Cl; 4.4

* * *

Assay: PAMPA with synthetic phospholipid membrane, lauryl chain (C12)
Format: in vitro ADME
Conditions: C12, donor pH 4.98, acceptor pH 7.4, 16 h
Where a name gives a salt, the structure may show the parent alone.
Listed here are compounds together with their documented P e.
experimentalReadout: P e

CCn1cc(C(=O)O)c(=O)c2cc(F)c(N3CCNCC3)cc21; 2.2 ×10^–6 cm/s
NC(N)=Nc1nc(CSCCC(N)=NS(N)(=O)=O)cs1; 1.2 ×10^–6 cm/s
COCCc1ccc(OCC(O)CNC(C)C)cc1 (centres unmarked) [Metoprolol Tartrate]; 2.6 ×10^–5 cm/s
CC1(C)S[C@@H]2[C@H](NC(=O)[C@H](N)c3ccc(O)cc3)C(=O)N2[C@H]1C(=O)O; 2.1 ×10^–7 cm/s
CN(C)C(=N)N=C(N)N [Metformin Hydrochloride]; 1.7 ×10^–7 cm/s
